Value source: paper PMC6028563

Test target: human A1 AR (Homo sapiens)
Construct: expressed in transfected cells; host or cells: CHO cells
Sequence (P30542 whole entry): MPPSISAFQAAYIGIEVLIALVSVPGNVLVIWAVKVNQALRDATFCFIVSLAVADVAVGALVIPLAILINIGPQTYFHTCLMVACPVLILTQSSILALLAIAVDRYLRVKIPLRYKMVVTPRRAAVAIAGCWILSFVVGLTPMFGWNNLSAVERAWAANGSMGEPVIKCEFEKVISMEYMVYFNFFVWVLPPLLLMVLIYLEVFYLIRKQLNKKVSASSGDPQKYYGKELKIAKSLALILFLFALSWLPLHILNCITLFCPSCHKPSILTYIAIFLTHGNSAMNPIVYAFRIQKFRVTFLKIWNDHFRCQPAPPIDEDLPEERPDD
Method summary: Radioligand binding assay at human A1 AR vs. [^3H]CCPA
Settings: human (h); CHO cell membranes; n = 3
Quantity measured: Ki (nM)

A = CCn1c(=O)c2c(nc3n2CCN(Cc2cc(F)cc(Cl)c2)C3)n(C)c1=O [Compound 14n]
B = CCn1c(=O)c2c(nc3n2CCN(Cc2cc(Br)ccc2F)C3)n(CC)c1=O [Compound 15l]
// compare measured Ki, left A , right B , return larger Please identify the chosen entry by its label.
A

a = C#CCn1c(=O)c2c(nc3n2CCN(Cc2cc(C(F)(F)F)ccc2Cl)C3)n(C)c1=O [Compound 19b]
b = CCn1c(=O)c2c(nc3n2CCN(Cc2cc(Cl)cc(Cl)c2)C3)n(CC)c1=O [Compound 15m]
c = CCn1c(=O)c2c(nc3n2CCN(Cc2ccc(F)cc2)C3)n(C)c1=O [Compound 14h]
d = CCn1c(=O)c2c(nc3n2CCN(Cc2cccc(C(F)(F)F)c2F)C3)n(C)c1=O [Compound 14l]
Sort these compounds on Ki so the largest reading comes first. Write the labels, ordered according to the request.
c, d, b, a
